- ASSAY_PROTOCOL: Study A: single oral dose pharmacokinetics in healthy subjects
- Format: in vivo, human
- PROTOCOL_CONDITIONS: human, plasma; single oral dose 200 mg, fasted, mean ± SD
REPORTED_PROPERTY: AUC(0-inf) (ng·h/mL)
Numbers only, in ng·h/mL.

// query AUC(0-inf) value for entry COc1ccccc1[C@H](Cn1c(=O)n(C(C)(C)C(=O)O)c(=O)c2c(C)c(-c3ncco3)sc21)OC1CCOCC1
1250

###

- ASSAY_PROTOCOL: Study B: multiple oral dose pharmacokinetics, 10 days
- Type: in vivo, human
- PROTOCOL_CONDITIONS: human, in vivo, oral, 200 mg, 200 mg QD, Day 10 steady state
REPORTED_PROPERTY: Cmax (ng/mL)
Answers are plain numbers, in ng/mL.

What does the data say about its Cmax? Entry: COc1ccccc1[C@H](Cn1c(=O)n(C(C)(C)C(=O)O)c(=O)c2c(C)c(-c3ncco3)sc21)OC1CCOCC1
198
